Please respond with reported inhibition (INH) for every item in the list.
# Assay summary: Antioxidant activity assessed as inhibition of the lipid peroxidation at 0.74 mM incubated for 24 hrs by ferric thiocyanate method
# Format: physicochemical
# Cond: 740 µM
One number for each entry, in %.

Some entries whose results are on file:
{"Compound": "Oc1cc(/C=N/NC(=[Se])Nc2cccc3ccccc23)cc(O)c1O", "Reported value": 24.3}
{"Compound": "Oc1cc(O)c(/C=N/NC(=S)Nc2ccccc2)cc1O", "Reported value": 56.8}
{"Compound": "Oc1ccc(/C=N/NC(=[Se])Nc2ccccc2)cc1", "Reported value": 31}
{"Compound": "Oc1ccc(/C=N/NC(=[Se])Nc2cccc3ccccc23)cc1O", "Reported value": 72}
{"Compound": "Oc1ccc(/C=N/NC(=S)Nc2ccccc2)cc1", "Reported value": 5.5}

Dear colleague, could you send me inhibition (INH) for each of the items below? Thanks.
1. Oc1cc(/C=N/NC(=[Se])Nc2ccccc2)cc(O)c1O
2. Oc1cc(O)c(/C=N/NC(=[Se])Nc2cccc3ccccc23)cc1O

65.7
43

State recorded inhibition (INH) for all listed compounds.
1. O=Cc1ccc(O)c(O)c1 [PROTOCATECHUALDEHYDE]
2. O=Cc1cc(O)c(O)cc1O
3. Oc1ccc(/C=N/NC(=[Se])Nc2cccc3ccccc23)cc1
4. Oc1cc(/C=N/NC(=S)Nc2ccccc2)cc(O)c1O
5. Oc1ccc(/C=N/NC(=S)Nc2ccccc2)cc1O
6. NNC(=[Se])Nc1cccc2ccccc12
7. Oc1ccc(/C=N/NC(=[Se])Nc2ccccc2)cc1O

1. 35.7
2. 56.1
3. 23.3
4. 59.9
5. 72
6. 21.9
7. 66.5
